- Experiment description: Inhibition of recombinant wild type HIV reverse transcriptase
- Set-up: species or system Human immunodeficiency virus
pIC50: −log10 of the molar value.
Overview of reported pIC50 across a group of compounds:
Reported metric: pIC50

> print(dat)
                                   compound  reported.metric  measured
1  Nc1nc(=O)n([C@H]2C[C@@H](COP(=O)(O)OP(=O)(O)OP(=O)(O)O)C2)cc1F            pIC50      5.33
2  Nc1ccn([C@@H]2CS[C@H](COP(=O)(O)OP(=O)(O)OP(=O)(O)O)O2)c(=O)n1 [LAMIVUDINE TRIPHOSPHATE]            pIC50      5.52
